Source: paper PMC11109052

# experimentalDetails: Pharmacokinetics studies in mice (plasma)
# Format: in vivo
# cond: mouse, plasma; mice, oral administration 5 mg/kg; read-out: t1/2z
readoutKind: half-life (min)
Give the number; min is assumed, so skip it.

Ask | May I ask what half-life has been recorded for CC1CCC2C(C=CC(C)C2C(=O)c2c(O)c(C3(O)CCC(O)C4OC43)cn(O)c2=O)C1 (stereo not shown) [N-hydap, N-Hydroxyapiosporamide] ?
Reply | 57.6

###

# experimentalDetails: Metabolic stability in HLMs, CYP reaction
# Assay type: in vitro ADME, human
# cond: human, human liver microsomes (CYP reaction), pH 7.4; HLMs, CYP reaction
# Procedure: Various microsomes including HLMs, HKMs, HIMs, RLMs, RKMs, MLMs and MKMs were involved in CYP and UGT reactions of N-hydap. […] The identical concentration of HLMs was utilized for both the CYP reaction and UGT reaction. […] Samples were analyzed using LC–MS to compare the remaining level of N-hydap between the CYP reaction and UGT reaction. T1/2 and CLint (in vivo) (mL/min/kg) were calculated as reported previously: […]
readoutKind: half-life
Answer format: number, then unit.

Ask | May I ask what half-life has been recorded for CC1CCC2C(C=CC(C)C2C(=O)c2c(O)c(C3(O)CCC(O)C4OC43)cn(O)c2=O)C1 (stereo not shown) [N-hydap, N-Hydroxyapiosporamide] ?
Reply | 2.98 h

###

# experimentalDetails: Pharmacokinetics studies in mice (plasma)
# Assay type: in vivo
# cond: mouse, plasma, iv; mice, tail vein injection 2 mg/kg
readoutKind: Tmax
Answer format: number, then unit.

Ask | May I ask what Tmax has been recorded for CC1CCC2C(C=CC(C)C2C(=O)c2c(O)c(C3(O)CCC(O)C4OC43)cn(O)c2=O)C1 (stereo not shown) [N-hydap, N-Hydroxyapiosporamide] ?
Reply | 3 min

###

# experimentalDetails: Metabolic stability in HLMs, UGT reaction (glucuronidation)
# Format: in vitro ADME, human
# cond: human, human liver microsomes (UGT reaction), pH 7.4; HLMs, UGT reaction; extrapolated from in vitro T1/2; read-out: CLint (in vivo)
readoutKind: CLint scaled (mL/min/kg)
Give the number; mL/min/kg is assumed, so skip it.

Ask | May I ask what CLint scaled has been recorded for CC1CCC2C(C=CC(C)C2C(=O)c2c(O)c(C3(O)CCC(O)C4OC43)cn(O)c2=O)C1 (stereo not shown) [N-hydap, N-Hydroxyapiosporamide] ?
Reply | 48.2

###

# experimentalDetails: Metabolic stability in HLMs, CYP reaction
# Format: in vitro ADME, human
# cond: human, human liver microsomes (CYP reaction), pH 7.4; HLMs, CYP reaction; extrapolated from in vitro T1/2; read-out: CLint (in vivo)
readoutKind: CLint scaled (mL/min/kg)
Give the number; mL/min/kg is assumed, so skip it.

Ask | May I ask what CLint scaled has been recorded for CC1CCC2C(C=CC(C)C2C(=O)c2c(O)c(C3(O)CCC(O)C4OC43)cn(O)c2=O)C1 (stereo not shown) [N-hydap, N-Hydroxyapiosporamide] ?
Reply | 34.9

###

# experimentalDetails: Pharmacokinetics studies in mice (plasma)
# Format: in vivo
# cond: mouse, plasma; mice, oral administration 5 mg/kg
readoutKind: AUC(0-t) (µM·h)
Give the number; µM·h is assumed, so skip it.

Ask | May I ask what AUC(0-t) has been recorded for CC1CCC2C(C=CC(C)C2C(=O)c2c(O)c(C3(O)CCC(O)C4OC43)cn(O)c2=O)C1 (stereo not shown) [N-hydap, N-Hydroxyapiosporamide] ?
Reply | 1.41

###

# experimentalDetails: Pharmacokinetics studies in mice (plasma)
# Assay type: in vivo
# cond: mouse, plasma; mice, oral 5 mg/kg vs tail vein 2 mg/kg; read-out: F (oral bioavailability)
readoutKind: bioavailability (%)
Give the number; % is assumed, so skip it.

Ask | May I ask what bioavailability has been recorded for CC1CCC2C(C=CC(C)C2C(=O)c2c(O)c(C3(O)CCC(O)C4OC43)cn(O)c2=O)C1 (stereo not shown) [N-hydap, N-Hydroxyapiosporamide] ?
Reply | 24

###

# experimentalDetails: Metabolic stability in HLMs, UGT reaction (glucuronidation)
# Format: in vitro ADME, human
# cond: human, human liver microsomes (UGT reaction), pH 7.4; HLMs, UGT reaction
readoutKind: half-life (h)
Give the number; h is assumed, so skip it.

Ask | May I ask what half-life has been recorded for CC1CCC2C(C=CC(C)C2C(=O)c2c(O)c(C3(O)CCC(O)C4OC43)cn(O)c2=O)C1 (stereo not shown) [N-hydap, N-Hydroxyapiosporamide] ?
Reply | 2.16

###

# experimentalDetails: Pharmacokinetics studies in mice (plasma)
# Type: in vivo
# cond: mouse, plasma; mice, oral administration 5 mg/kg
readoutKind: Cmax

Ask | May I ask what Cmax has been recorded for CC1CCC2C(C=CC(C)C2C(=O)c2c(O)c(C3(O)CCC(O)C4OC43)cn(O)c2=O)C1 (stereo not shown) [N-hydap, N-Hydroxyapiosporamide] ?
Reply | 2060 nM
